System: 616215-338-R-J1-PDC spheroids with HUVEC/MSC, viability
Test: Anticancer human tumor 616215-338-R-J1-PDC patient-derived colon adenocarcinoma cell line growth inhibition [PI3K]
Details: second compound 0.01 µM; first compound 10 µM; hits give low values
Source text: Combinatorial screen of targeted agents with the PI3K inhibitors inavolisib, alpelisib, duvelisib, and copanlisib in multi-cell type tumor spheroids A high-throughput screen of multi-cell type tumor spheroids was designed to identify active combinations of targeted small molecules and PI3K pathway inhibitors. […] Compounds. […] If the clinical Cmax for an agent had not been determined, the highest concentration tested was 10 microM. […]
Sorting guide: entries reporting viability, T/C beneath 60% go in the T pile, the rest go in the F pile.

CC(Cn1ccc(-c2ccc(C#N)c(Cl)c2)n1)NC(=O)c1cc(C(C)O)[nH]n1 (stereo unspecified) + COc1c(OCCCN2CCOCC2)ccc2c3n(c(=NC(=O)c4cnc(N)nc4)nc12)CCN3; F
C[C@@H](NC(=O)c1ncnc(N)c1Cl)c1ncc(C(=O)Nc2cc(C(F)(F)F)c(Cl)cn2)s1 + COc1c(OCCCN2CCOCC2)ccc2c3n(c(=NC(=O)c4cnc(N)nc4)nc12)CCN3; F
CNC(=O)c1ccc(N2C(=S)N(c3ccc(C#N)c(C(F)(F)F)c3)C(=O)C2(C)C)cc1F + COc1c(OCCCN2CCOCC2)ccc2c3n(c(=NC(=O)c4cnc(N)nc4)nc12)CCN3; F

Strictly below 60% in viability, T/C? CC1(C)CCC(Nc2ncc(C(F)(F)F)c(-c3c[nH]c4c(P(C)(C)=O)c(C#N)ccc34)n2)CN1 (stereo unspecified) + COc1c(OCCCN2CCOCC2)ccc2c3n(c(=NC(=O)c4cnc(N)nc4)nc12)CCN3
T

Strictly below 60% in viability, T/C? CCCS(=O)(=O)Nc1ccc(F)c(C(=O)c2c[nH]c3ncc(-c4ccc(Cl)cc4)cc23)c1F + COc1c(OCCCN2CCOCC2)ccc2c3n(c(=NC(=O)c4cnc(N)nc4)nc12)CCN3
T

Strictly below 60% in viability, T/C? C#Cc1c(F)ccc2cc(O)cc(-c3ncc4c(N5CC6CCC(C5)N6)nc(OCC56CCCN5CC(F)C6)nc4c3F)c12 (stereo unspecified) + CC(Nc1ccc2c(c1)OCCn1cc(N3C(=O)OCC3C(F)F)nc1-2)C(N)=O
F

###

Listed here: items and their measured viability, T/C.
Test system: 616215-338-R-J1-PDC spheroids with HUVEC/MSC, viability
Assay: Anticancer human tumor 616215-338-R-J1-PDC cell line growth inhibition [PI3K];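 further: spheroids exposed to agents for seven days before the viability read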
Details: second compound 3.16 µM; first compound 0.00316 µM; hits give low values

Solved cases below.
CC(=O)c1c(C)c2cnc(Nc3ccc(N4CCNCC4)cn3)nc2n(C2CCCC2)c1=O + Cc1nc(NC(=O)N2CCCC2C(N)=O)sc1-c1ccnc(C(C)(C)C(F)(F)F)c1; 90.5%
CCN1CCN(Cc2ccc(Nc3ncc(F)c(-c4cc(F)c5nc(C)n(C(C)C)c5c4)n3)nc2)CC1 + CC(Nc1ncnc2nc[nH]c12)c1cc2cccc(Cl)c2c(=O)n1-c1ccccc1; 106%
CC(=O)c1c(C)c2cnc(Nc3ccc(N4CCNCC4)cn3)nc2n(C2CCCC2)c1=O + CC(Nc1ncnc2nc[nH]c12)c1cc2cccc(Cl)c2c(=O)n1-c1ccccc1; 99.2%

Field: next molecule
Data point: Cn1ncnc1[C@H]1c2n[nH]c(=O)c3cc(F)cc(c23)N[C@@H]1c1ccc(F)cc1 + CC(Nc1ncnc2nc[nH]c12)c1cc2cccc(Cl)c2c(=O)n1-c1ccccc1 ; viability, T/C = 106%
